assayDetails: MMV: MTT Cytotoxicity Assay Day 7 pi of Assay #6 (compound washed out Day 1 pi), U87-CD4-CCR5 cells, % cell death @ 5mM compound
Type: toxicity, cell-based
conditionDetails: human, u87-cd4-ccr5, 5000 µM
Listing of entries alongside the reported % Cell Death.

Study these solved cases before continuing.
Measured % Cell Death of O=C(Nc1ccc(-c2nc3ccccc3[nH]2)cc1)c1ccc(Cl)c(Cl)c1 : -9

Measured % Cell Death of CN1CCN(c2ncnc3c2[nH]c2ccc(Cl)cc23)CC1 : 29

Measured % Cell Death of CCOC(=O)c1ccc2[nH]c(-c3ccccc3)cc(=O)c2c1 : 98

New cases:
Measured % Cell Death of C=CC12CCN(CC1)C(C(O)c1ccnc3ccc(OC)cc13)C2.Cl (stereo unspecified) : -12

The origin of these recorded values is ChEMBL document CHEMBL3301472.
